Test system: tetrabenazine-induced ptosis
procedureDetails: inhibition of tetrabenazine-induced ptosis in mice (antidepressant assay)
Type: in vivo
conditionInfo: Mus musculus, ip; intraperitoneal, mice; Table II (2-, 3- and 4-substituted series A, B, C); read-out: ED50 (50% inhibition from the ptosis of tetrabenazine-induced depression)
Excerpt: Thus, for instance, the intraperitoneal dosages at which the following compounds (ED50) effect a 50% inhibition from the ptosis of tetrabenazine-induced depression in mice are: It is to be noted and stressed at this point that the substitution of a benzyl in the 2- or ortho position of the phenyl ring, in the compounds of the invention, is critical to biological especially antidepressant, activity. […]
ED50 reference

compound | ED50
CN1CCC(c2ccc(Cc3ccccc3)cc2)CC1.O=C(O)C(=O)O [reference compound] | > 20 mg/kg
Cl.c1ccc(Cc2cccc(C3CCNCC3)c2)cc1 [reference compound] | > 20 mg/kg
CN1CCC(c2cccc(Cc3ccccc3)c2)CC1.O=C(O)C(=O)O [reference compound] | > 20 mg/kg
Cl.c1ccc(Cc2ccc(C3CCNCC3)cc2)cc1 [reference compound] | > 20 mg/kg
CN1CCC(c2ccccc2Cc2ccccc2)CC1.Cl | 2.5 mg/kg

Shift focus to the following entry.
ED50 lookup needed for `Cl.c1ccc(Cc2ccccc2C2CCNCC2)cc1` , thanks.
1.7 mg/kg
